Readout type: melting point

Previously resolved entries follow.
O=C(N[C@H](Cc1ccc(C(F)(F)F)cc1)[C@@H](O)c1ccc(F)cc1)C(F)(F)F (racemic) [Example 70]    162 to 163 °C
O=C(N[C@H](Cc1ccc(C(F)(F)F)cc1)[C@@H](O)c1ccc(F)cc1)c1cccc(-c2ccccc2)c1 (racemic) [Example 74]    165 to 166 °C
O=C(N[C@H](Cc1ccc(C(F)(F)F)cc1)[C@@H](O)c1ccc(F)cc1)c1c(CSc2ccccc2)ccc2ccccc12 (racemic) [Example 97]    102 to 104 °C
O=C(N[C@H](Cc1ccc(F)cc1)[C@@H](O)c1ccc(C(F)(F)F)cc1)c1cccc2ccccc12 (racemic) [Example 212]    207 to 208 °C
CC(C)(C)C(=O)NC(Cc1ccc(C(F)(F)F)cc1)C(O)c1ccc(F)cc1 (racemic) [Example 16]    97 to 99 °C
CC(C)Oc1cccc(C[C@@H](NC(=O)c2cccc3c2C=CCCC3)[C@@H](O)c2ccc(F)cc2)c1 (racemic) [Example 282]    161 to 162 °C

# evaluate next
**Q:** Need melting point, item CC(F)(F)c1cccc(C[C@@H](NC(=O)c2ccc(F)c3ccccc23)[C@@H](O)c2ccc(F)cc2)c1 (racemic) [Example 359]
**A:** 182 to 183 °C

---

Reported melting point values follow for various compounds

CCCCOc1ccc([C@H](O)[C@@H](Cc2cccc(OC(F)(F)C(F)F)c2)NC(=O)c2cccc3c2C=CCCC3)cc1 (racemic)    126 to 127 °C
O=C(NCc1ccccc1)c1ccc([C@H](O)[C@@H](Cc2cccc(OC(F)(F)C(F)F)c2)NC(=O)c2cccc3c2C=CCCC3)cc1 (racemic)    216 to 217 °C
CC(C)(C)c1cccc(C[C@@H](NC(=O)c2cccc3c(Cl)cccc23)[C@@H](O)c2cccc(Cl)c2)c1 (racemic)    91 to 93 °C
O=C(CCCc1cccs1)N[C@H](Cc1ccc(C(F)(F)F)cc1)[C@@H](O)c1cccc2ccccc12 (racemic)    139 to 140 °C
O=C(Nc1cccc2ccccc12)N[C@H](Cc1ccc(C(F)(F)F)cc1)[C@@H](O)c1ccc(F)cc1 (racemic)    222 to 223 °C

# evaluate next
**Q:** Need melting point, item O=C(N[C@H](Cc1ccc(OC(F)(F)F)cc1)[C@@H](O)c1ccc(F)cc1)c1ccc(F)c2ccccc12 (racemic)
**A:** 230 to 231 °C

---

biological target: human CETP (Homo sapiens); experiment: Assay of cholesteryl ester transfer protein inhibitory activity, 50% human plasma-containing measurement system; type: biochemical; settings: BODIPY-CE-ME donor, VLDL-LDL acceptor, reaction at 37° C. for 60 min.
Sequence (P11597 18-493): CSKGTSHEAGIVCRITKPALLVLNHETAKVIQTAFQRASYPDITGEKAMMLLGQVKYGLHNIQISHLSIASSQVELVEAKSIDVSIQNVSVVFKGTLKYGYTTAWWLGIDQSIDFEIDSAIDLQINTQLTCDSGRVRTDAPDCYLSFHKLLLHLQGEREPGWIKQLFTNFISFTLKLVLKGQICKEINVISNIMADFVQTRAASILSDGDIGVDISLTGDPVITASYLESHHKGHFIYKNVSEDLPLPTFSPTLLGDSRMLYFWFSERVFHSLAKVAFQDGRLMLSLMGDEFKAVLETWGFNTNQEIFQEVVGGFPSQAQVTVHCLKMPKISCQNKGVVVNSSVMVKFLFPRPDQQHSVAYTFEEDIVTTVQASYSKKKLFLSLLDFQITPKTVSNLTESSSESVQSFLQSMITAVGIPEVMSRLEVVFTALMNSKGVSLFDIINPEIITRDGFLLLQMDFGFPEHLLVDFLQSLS
Each record gets a class by IC50: lo (below 1 µM), med (1 µM to below 2 µM), hi (2 µM or more)

Consider the worked cases shown below.
O=C(N[C@H](Cc1ccc(C(F)(F)F)cc1)[C@@H](O)c1ccc(F)cc1)c1ccc(F)c2ccccc12 (racemic)    hi
O=C(N[C@H](Cc1cccc(OC(F)(F)C(F)F)c1)[C@@H](O)c1ccc(F)cc1)c1cccc2c1C=CCC2 (racemic)    lo
O=C(NC(Cc1ccc(C(F)(F)F)cc1)C(O)c1ccc(F)cc1)c1ccc(F)c2ccccc12 (stereo not drawn) [227(+)-form]    med
O=C(N[C@H](Cc1ccc(C(F)(F)F)cc1)[C@@H](O)c1ccc(Oc2ccccc2)cc1)c1cccc2c1C=CCCC2 (racemic)    med
CC(C)(C)c1ccc(C[C@@H](NC(=O)c2cccc3c(Cl)cccc23)[C@@H](O)c2cccc(Cl)c2)cc1 (racemic)    hi
O=C(N[C@H](Cc1cccc(OC(F)(F)C(F)F)c1)[C@@H](O)c1ccnc(F)c1)c1cccc2c1C=CCCC2 (racemic)    med
O=C(NC(Cc1ccc(C(F)(F)F)cc1)C(O)c1ccc(F)cc1)c1cccc2ccccc12 (stereo not drawn) [226(+)-form]    hi
O=C(NC(Cc1cccc(OC(F)(F)C(F)F)c1)C(O)c1ccc(F)cc1)c1cccc2c1C=CCCC2 (stereo not drawn) [229(+)-form]    lo
O=C(N[C@H](Cc1ccc2c(c1)OC(F)(F)C(F)(F)O2)[C@@H](O)c1ccc(F)cc1)c1ccc(F)c2ccccc12 (racemic)    med

**Q:** Note: place this molecule into its band. Item: O=C(N[C@H](Cc1cccc(OC(F)(F)C(F)F)c1)[C@@H](O)c1ccc(Oc2ccccc2)cc1)c1cccc2c1C=CCCC2 (racemic)
**A:** lo

---

Readout type: melting point

Previously resolved entries follow.
CC(C)(C)Oc1ccc(C[C@@H](NC(=O)c2cccc3c2C=CCCC3)[C@@H](O)c2cccc(Cl)c2)cc1 (racemic)    180 to 181 °C
CCCCNC(=O)c1ccc([C@H](O)[C@@H](Cc2cccc(OC(F)(F)C(F)F)c2)NC(=O)c2cccc3c2C=CCCC3)cc1 (racemic)    207 to 208 °C

# evaluate next
**Q:** Need melting point, item O=C(N[C@H](Cc1cccc(OC(F)(F)C(F)F)c1)[C@@H](O)c1ccc(-c2ccccc2CO)cc1)c1cccc2c1C=CCCC2 (racemic)
**A:** 152 to 154 °C

---

Readout type: melting point

Previously resolved entries follow.
COc1ccc(C(=O)N[C@H](Cc2ccc(C(F)(F)F)cc2)[C@@H](O)c2ccc(F)cc2)c2ccccc12 (racemic) [Example 101]    227 to 228 °C
O=C(N[C@H](Cc1ccc(C(F)(F)F)cc1)[C@@H](O)c1ccc(Cl)s1)c1ccc(F)c2ccccc12 (racemic) [Example 197]    201 to 203 °C
O=C(N[C@H](Cc1cc(OC(F)(F)C(F)F)no1)[C@@H](O)c1ccc(F)cc1)c1cccc2c1C=CCCC2 (racemic) [Example 320]    127 to 128 °C
CC(C)(C)OC(=O)N[C@H](Cc1cccc(OC(F)(F)C(F)F)c1)[C@@H](O)c1ccc(C=O)cc1 (racemic) [Example 325]    140 to 142 °C
O=C(Cc1ccccc1)N[C@H](Cc1ccc(C(F)(F)F)cc1)[C@@H](O)c1ccc(F)cc1 (racemic) [Example 69]    173 to 174 °C
CN(C(=O)c1cccc2ccccc12)[C@H](Cc1ccc(C(F)(F)F)cc1)[C@@H](O)c1ccc(F)cc1 (racemic) [Example 121]    196 to 197 °C

**Q:** Need melting point, item O=C(N[C@H](Cc1ccc(C(F)(F)F)cc1)[C@@H](O)c1ccc(F)cc1)c1ccnc2ccccc12 (racemic) [Example 57]
**A:** 227 to 228 °C

---

Reported melting point values follow for various compounds

Previously resolved entries follow.
O=C(N[C@H](Cc1cccc(OC(F)(F)C(F)F)c1)[C@@H](O)c1ccc(-c2ccsc2)cc1)c1cccc2c1C=CCCC2 (racemic)    178 to 179 °C
O=C(N[C@H](Cc1ccc(C(F)(F)F)cc1)[C@@H](O)c1ccc(F)cc1)c1c2ccccc2cc2ccccc12 (racemic)    251 to 252 °C

**Q:** Need melting point, item O=C(N[C@H](Cc1cccc(OC(F)(F)C(F)F)c1)[C@@H](O)c1ccc(CN2CCCCC2)cc1)c1cccc2c1C=CCCC2 (racemic)
**A:** 104 to 106 °C

**Q:** Need melting point, item CC(C)(C)c1ccc(C(=O)NC(Cc2ccc(C(F)(F)F)cc2)C(O)c2ccc(F)cc2)cc1 (racemic)
**A:** 58 °C

**Q:** Need melting point, item O=C(N[C@H](Cc1ccc(C(F)(F)F)cc1)[C@@H](O)c1ccc(F)cc1)c1ccc(Cl)c2ccccc12 (racemic)
**A:** 222 to 223 °C

**Q:** Need melting point, item O=C(N[C@H](Cc1ccc(C(F)(F)F)cc1)[C@@H](O)c1ccc(F)cc1)c1csc2ccccc12 (racemic)
**A:** 188 to 189 °C

---

Reported melting point values follow for various molecules

O=C(N[C@H](Cc1cccc(C(=O)C(F)(F)C(F)F)c1)[C@@H](O)c1ccc(F)cc1)c1ccc(F)c2ccccc12 (racemic) [Example 348]    160 to 162 °C
COC(=O)c1ccc([C@@H](O)[C@H](Cc2cccc(OC(F)(F)C(F)F)c2)NC(=O)c2cccc3c2C=CCCC3)cc1 (racemic) [Example 309]    137 to 138 °C
O=C(N[C@H](Cc1cccc(OC(F)(F)C(F)F)c1)[C@@H](O)c1cccc(F)c1)c1ccc(F)c2ccccc12 (racemic) [Example 263]    175 to 176 °C
CC(C)(C)OC(=O)N[C@H](Cc1cccc(S(=O)(=O)C(F)(F)F)c1)[C@@H](O)c1ccc(F)cc1 (racemic) [Example 279]    152 to 153 °C

**Q:** Need melting point, item O=C(N[C@H](Cc1cccc(OC(F)(F)C(F)F)c1)[C@@H](O)c1ccc(Oc2ccccc2)cn1)c1ccc(F)c2ccccc12 (racemic) [Example 256]
**A:** 146 to 147 °C

**Q:** Need melting point, item CN(C)c1ccc(C(=O)N[C@H](Cc2ccc(C(F)(F)F)cc2)[C@@H](O)c2ccc(F)cc2)c2ccccc12 (racemic) [Example 75]
**A:** 169 to 170 °C

# credit: patent US6982348B2
